- system.name: Large T antigen (Simian virus 40);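 note: Confirmatory-stage PubChem screen for compounds that inhibit SV40 T antigen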
- Sequence (P03070 whole entry): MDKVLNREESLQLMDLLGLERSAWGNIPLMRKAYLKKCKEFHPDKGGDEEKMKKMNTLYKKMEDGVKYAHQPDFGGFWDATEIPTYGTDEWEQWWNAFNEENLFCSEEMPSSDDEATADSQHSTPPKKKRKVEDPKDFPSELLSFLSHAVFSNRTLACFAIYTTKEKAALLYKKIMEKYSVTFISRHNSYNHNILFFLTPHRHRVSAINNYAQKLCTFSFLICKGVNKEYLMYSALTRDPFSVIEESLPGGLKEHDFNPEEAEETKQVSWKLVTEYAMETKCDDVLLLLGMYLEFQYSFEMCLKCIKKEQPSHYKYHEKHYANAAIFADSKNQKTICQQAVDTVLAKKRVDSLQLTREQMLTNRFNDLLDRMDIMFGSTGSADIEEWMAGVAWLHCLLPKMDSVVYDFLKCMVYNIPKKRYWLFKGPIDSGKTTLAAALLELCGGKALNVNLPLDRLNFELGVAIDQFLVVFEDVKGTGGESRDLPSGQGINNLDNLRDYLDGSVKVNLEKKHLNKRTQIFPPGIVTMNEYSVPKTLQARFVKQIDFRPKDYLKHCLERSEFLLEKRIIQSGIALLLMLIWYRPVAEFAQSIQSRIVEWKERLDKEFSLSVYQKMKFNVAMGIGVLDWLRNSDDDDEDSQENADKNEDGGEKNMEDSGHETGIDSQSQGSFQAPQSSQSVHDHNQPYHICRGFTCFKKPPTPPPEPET
- Assay type: functional, Betapolyomavirus macacae
Calls of active or inactive are those of the source.
Listing of recorded IC50 by entry.
result.type: IC50

>  <molecule>
COc1cccc(CNc2ccc3[nH]c(O)nc3c2)c1OCc1ccccc1

>  <measured.value>
16.5 µM (active)

$$$$
>  <molecule>
COc1ccccc1N1C(=O)C=C(Sc2nc(C)cc(C)n2)C1=O

>  <measured.value>
24.3 µM (active)

$$$$
>  <molecule>
Cn1c(=O)oc2cc(S(=O)(=O)Nc3ccc(O)cc3)ccc21

>  <measured.value>
4.64 µM (active)

$$$$
>  <molecule>
O=c1cc(-c2ccc(O)c(O)c2)oc2cc(O)cc(O)c12 [LUTEOLIN]

>  <measured.value>
11.9 µM (active)

$$$$
>  <molecule>
Cc1nn(-c2ccccc2)c(S)c1/C=N/c1ccc([N+](=O)[O-])cc1

>  <measured.value>
25.7 µM (active)

$$$$
>  <molecule>
COc1cc(C(=O)N/N=C(\C)Cn2nc([N+](=O)[O-])cc2C)ccc1O

>  <measured.value>
29.3 µM (active)

$$$$
>  <molecule>
O=C(O)CCCNc1cc(N2CCN(C(=O)c3ccco3)CC2)c2noc3c2c1C(=O)c1ccccc1-3

>  <measured.value>
> 100 µM (active)

$$$$
>  <molecule>
COc1cc(/C=C2\C(=O)NN(c3ccccc3)C2=O)ccc1OCC(N)=O

>  <measured.value>
> 100 µM (active)

$$$$

* * *

Listing of recorded AC50 by entry.
- system.name: Cytochrome P450 2D6 (Homo sapiens, UniProt P10635);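 note: CYP2D6 member of a cytochrome P450 panel assay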
- Sequence (P10635 whole entry): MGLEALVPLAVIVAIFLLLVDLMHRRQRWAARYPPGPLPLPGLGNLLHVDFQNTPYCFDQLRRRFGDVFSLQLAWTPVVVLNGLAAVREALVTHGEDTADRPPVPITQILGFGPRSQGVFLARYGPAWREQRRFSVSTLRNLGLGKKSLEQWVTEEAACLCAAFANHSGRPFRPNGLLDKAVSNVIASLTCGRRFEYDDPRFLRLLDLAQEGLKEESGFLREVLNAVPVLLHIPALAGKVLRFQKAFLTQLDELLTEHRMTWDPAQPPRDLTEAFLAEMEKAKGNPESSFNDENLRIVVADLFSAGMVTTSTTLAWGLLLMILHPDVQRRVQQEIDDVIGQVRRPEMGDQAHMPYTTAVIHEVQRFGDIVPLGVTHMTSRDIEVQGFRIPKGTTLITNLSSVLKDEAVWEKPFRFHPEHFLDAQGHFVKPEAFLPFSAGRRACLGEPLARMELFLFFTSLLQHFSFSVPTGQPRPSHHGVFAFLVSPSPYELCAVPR

>  <chemical.smiles>
CCCc1ccc(Oc2cc(C)nc(N3CCOCC3)n2)cc1

>  <AC50>
14.1 µM (inconclusive)

$$$$
>  <chemical.smiles>
COc1ccc(-c2nnn(CC(=O)NCCc3c[nH]c4ccccc34)n2)cc1OC

>  <AC50>
0.0126 µM (inconclusive)

$$$$
>  <chemical.smiles>
Cc1ccc(NC(=O)c2sc3ccccc3c2Cl)nc1

>  <AC50>
3.16 µM (inconclusive)

$$$$
>  <chemical.smiles>
CCCCN(Cc1ccccc1)C(=O)c1cnc2n(c1=O)CCS2

>  <AC50>
31.6 µM (inconclusive)

$$$$
>  <chemical.smiles>
Cn1cccc1C(=O)N1CCC[C@@]2(CCN(Cc3nccs3)C2)C1

>  <AC50>
31.6 µM (inconclusive)

$$$$
>  <chemical.smiles>
CC1=NOC(=O)/C1=C\c1ccc(-c2ccc(Cl)cc2Cl)o1

>  <AC50>
14.1 µM (inconclusive)

$$$$
>  <chemical.smiles>
N=c1nc(N)nc(N)n1-c1ccc(S(N)(=O)=O)cc1

>  <AC50>
3.98 µM (inconclusive)

$$$$
>  <chemical.smiles>
O=C(NCCNS(=O)(=O)c1ccccc1Cl)c1cc(OCC(F)(F)F)ccc1OCC(F)(F)F

>  <AC50>
22.4 µM (inconclusive)

$$$$
>  <chemical.smiles>
CCCCOc1ccc(CN2CCC(O)CC2)cc1

>  <AC50>
0.2 µM (inconclusive)

$$$$
>  <chemical.smiles>
N#Cc1cccc(-c2nc(N3CCNCC3)c3ccccc3n2)c1

>  <AC50>
39.8 µM (inconclusive)

$$$$
>  <chemical.smiles>
COc1ccc(C(=O)N2CCC3(CC2)CCN(c2ccncc2)CC3)cc1

>  <AC50>
15.8 µM (inconclusive)

$$$$
